These entries and their values trace back to paper PMC11818416.

- experiment.description: CCK-8 cytotoxicity test on MDCK cells
- assay.setup: dog, MDCK cells
Where a name gives a salt, the structure may show the parent alone.
measure: CC50 at 48 h

Known CC50 at 48 h results, listed for orientation:
# compound, measure, result
measured = [
    ("CNCC(=O)OCc1cccnc1N(C)C(=O)OC(C)[n+]1cnn(C[C@](O)(c2cc(F)ccc2F)[C@@H](C)c2nc(-c3ccc(C#N)cc3)cs2)c1 (some centres unmarked)", "CC50 at 48 h", "> 100 µM"),
    ("CC(/C=C/C=C(\\C)C(=O)O[C@@H]1O[C@H](CO[C@@H]2O[C@H](CO)[C@@H](O)[C@H](O)[C@H]2O)[C@@H](O)[C@H](O)[C@H]1O)=C\\C=C\\C=C(C)\\C=C\\C=C(/C)C(=O)O[C@@H]1O[C@H](CO[C@@H]2O[C@H](CO)[C@@H](O)[C@H](O)[C@H]2O)[C@@H](O)[C@H](O)[C@H]1O", "CC50 at 48 h", "> 100 µM"),
    ("NC[C@@H]1O[C@H](O[C@H]2[C@@H](O)[C@H](O[C@@H]3[C@@H](O)[C@H](N)C[C@H](N)[C@H]3O[C@H]3O[C@H](CO)[C@@H](O)[C@H](O)[C@H]3N)O[C@@H]2CO)[C@H](N)[C@@H](O)[C@@H]1O [Paromomycin, Paromomycin sulfate]", "CC50 at 48 h", "> 100 µM"),
]

For every item in the list below, what is its measured CC50 at 48 h?
1. C[C@H]1O[C@H](O[C@H]2[C@H](O)[C@@H](O)[C@@H](O[C@H]3[C@H](O)[C@@H](O)C(O)O[C@@H]3CO)O[C@@H]2CO)[C@H](O)[C@@H](O)[C@@H]1N[C@H]1C=C(CO)[C@@H](O)[C@H](O)[C@H]1O (some centres unmarked)
2. NC[C@H]1O[C@H](O[C@H]2[C@H](O)[C@@H](O[C@H]3O[C@H](CO)[C@@H](O)[C@H](N)[C@H]3O)[C@H](N)C[C@@H]2N)[C@H](N)C[C@@H]1O
3. CCCCC(=O)OCC(=O)[C@]1(O)Cc2c(O)c3c(c(O)c2[C@@H](O[C@H]2C[C@H](NC(=O)C(F)(F)F)[C@H](O)[C@H](C)O2)C1)C(=O)c1c(OC)cccc1C3=O
4. C[C@@H]1O[C@@H](OC[C@H]2O[C@@H](Oc3c(-c4ccc(OCCO)c(OCCO)c4)oc4cc(OCCO)cc(O)c4c3=O)[C@H](O)[C@@H](O)[C@@H]2O)[C@H](O)[C@H](O)[C@H]1O
5. CN[C@@H]1[C@@H](O)[C@@H](O[C@@H]2[C@@H](O)[C@H](O[C@H]3O[C@H](CN)[C@@H](O)[C@H](O)[C@H]3O)[C@@H](N)C[C@H]2NC(=O)[C@@H](O)CN)OC[C@]1(C)O

A)
1. > 100 µM
2. > 100 µM
3. < 50 µM
4. < 50 µM
5. > 100 µM

---

- Test system: MDCK cells
measure: CC50

Q) I am curious: what CC50 value has been reported for Cc1cc2nc3c(=O)[nH]c(=O)nc-3n(C[C@H](O)[C@H](O)[C@H](O)COP(=O)(O)OP(=O)(O)OC[C@H]3O[C@@H](n4cnc5c(N)ncnc54)[C@H](O)[C@@H]3O)c2cc1C ?
A) < 50 µM

---

- experiment.description: in vitro
- assay.setup: dog
measure: CC50 at 48 h (µM)
Numbers only, in µM.

# smiles.representation, unit.string, recorded.number
records = [
    ("CC(C)(C)[C@@H]1NC(=O)O[C@@H]2CCC[C@H]2OC/C=C/C(F)(F)c2nc3ccccc3nc2O[C@@H]2C[C@@H](C(=O)N[C@]3(C(=O)NS(=O)(=O)C4(C)CC4)C[C@H]3C(F)F)N(C2)C1=O", "µM", 77.3),
]

// next entry
Q) I am curious: what CC50 at 48 h value has been reported for CO[C@H]1C[C@@H]2CC[C@@H](C)[C@@](O)(O2)C(=O)C(=O)N2CCCC[C@H]2C(=O)O[C@H]([C@H](C)C[C@@H]2CC[C@@H](OCCO)[C@H](OC)C2)CC(=O)[C@H](C)/C=C(\C)[C@@H](O)[C@@H](OC)C(=O)[C@H](C)C[C@H](C)/C=C/C=C/C=C/1C ?
A) 78.2
